Field: EC50. Provide a value for each of the molecules that follow.
assay target: SST2 (Homo sapiens)
Sequence (P30874 whole entry): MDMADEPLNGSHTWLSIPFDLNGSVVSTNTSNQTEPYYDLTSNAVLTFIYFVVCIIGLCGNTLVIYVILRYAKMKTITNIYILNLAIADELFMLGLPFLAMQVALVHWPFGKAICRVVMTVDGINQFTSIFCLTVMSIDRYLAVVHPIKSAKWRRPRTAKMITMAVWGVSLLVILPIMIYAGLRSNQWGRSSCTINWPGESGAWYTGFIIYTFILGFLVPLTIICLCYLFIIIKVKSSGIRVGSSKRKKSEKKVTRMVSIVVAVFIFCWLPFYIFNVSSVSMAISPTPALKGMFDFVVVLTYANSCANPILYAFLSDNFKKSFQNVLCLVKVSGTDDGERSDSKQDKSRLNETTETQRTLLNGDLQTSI
test method notes: Hit Hunter cAMP XS+ assay, SST2 activation via Gi (reduction of forskolin-stimulated cAMP)
Format: cell-based
protocol conditions: reduction of forskolin-stimulated cAMP; 4-parameter logistic fit; read-out: SST2 pEC50 (converted)
*1 amine or outer side, *2 acyl side, *3 side chain or, on linkers, in order; H or OH if unused. Where a SMILES comes first, the peptide text is derived from it. Side-chain parts run from the residue outwards. [ ]: non-standard residue; d: D form. The star is where a group is joined. Ala(piperidin-4-yl) = O=C([C@H](CC1CCN([*:3])CC1)N[*:1])[*:2]; dTrp(4-OMe) = COc1cccc2[nH]cc(C[C@@H](N)C(=O)O)c12; dTrp(5-Me) = Cc1ccc2[nH]cc(C[C@@H](N)C(=O)O)c2c1; Ala(piperazin-1-yl) = N[C@@H](CN1CCNCC1)C(=O)O; X5 = CN([C@@H](CC1CCNCC1)C(=O)[*:2])[*:1]; Morpholine(3S-CO) = O=C(O)[C@@H]1COCCN1; Ethylenediamine = C(CN[*:2])N[*:1]; d(hPhe) = N[C@H](CCc1ccccc1)C(=O)O; Hyp = O=C(O)[C@@H]1C[C@@H](O)CN1; hPhe = N[C@@H](CCc1ccccc1)C(=O)O; 3Pal = N[C@@H](Cc1cccnc1)C(=O)O; Tic = O=C(O)[C@@H]1Cc2ccccc2CN1; Benzyl(4-Cl) = Clc1ccc(C*)cc1; Phg = N[C@H](C(=O)O)c1ccccc1; CO = O=C([*:1])[*:2]; Bn = c1ccc(C*)cc1; X1 = C1CCC(C*)C1
# number only, unit nM dropped from output

Ask: Recorded EC50 of COc1cccc2[nH]cc(C[C@H]3NC(=O)[C@@H](CCc4ccccc4)NC(=O)[C@@H]4COCCN4C(=O)[C@@H]4Cc5ccccc5CN4C(=O)[C@H](Cc4ccc(OCc5ccccc5)cc4)NC(=O)[C@H](CN4CCNCC4)NC3=O)c12 [Example 63] (cyclo([Tic][Morpholine(3S-CO)][d(hPhe)][dTrp(4-OMe)][Ala(piperazin-1-yl)]Y(Bn))) , please.
Result: 63.1

Ask: Try the molecule NCCNC(=O)O[C@@H]1C[C@H]2C(=O)N[C@@H](CCc3ccccc3)C(=O)N[C@H](Cc3c[nH]c4ccccc34)C(=O)N[C@@H](CN3CCNCC3)C(=O)N[C@@H](Cc3ccc(OCc4ccc(Cl)cc4)cc3)C(=O)N[C@@H](Cc3cccnc3)C(=O)N2C1 [Example 59] (cyclo([3Pal][Hyp]([CO-Ethylenediamine])[hPhe][dW][Ala(piperazin-1-yl)]Y(Benzyl(4-Cl))))
Result: 501

Ask: Try the molecule CN1C(=O)[C@@H](Cc2c[nH]c3ccccc23)NC(=O)[C@@H](CCc2ccccc2)NC(=O)[C@@H]2COCCN2C(=O)[C@@H]2Cc3ccccc3CN2C(=O)[C@H](Cc2ccc(OCc3ccccc3)cc2)NC(=O)[C@@H]1CC1CCNCC1 [Example 32] (cyclo([Tic][Morpholine(3S-CO)][d(hPhe)][dW][X5]Y(Bn)))
Result: 100

Ask: Try the molecule Cc1ccc2[nH]cc(C[C@H]3NC(=O)[C@H](c4ccccc4)NC(=O)[C@@H]4C[C@@H](OC(=O)NCCN)CN4C(=O)[C@H](Cc4ccccc4)NC(=O)[C@H](Cc4ccc(OCc5ccccc5)cc4)NC(=O)[C@H](CC4CCNCC4)NC3=O)c2c1 [Example 13] (cyclo(F[Hyp]([CO-Ethylenediamine])[Phg][dTrp(5-Me)][Ala(piperidin-4-yl)]Y(Bn)))
Result: 200

Ask: Try the molecule NCCNC(=O)O[C@@H]1C[C@H]2C(=O)N[C@@H](CCc3ccccc3)C(=O)N[C@H](Cc3c[nH]c4ccccc34)C(=O)N[C@@H](CC3CCNCC3)C(=O)N[C@@H](Cc3ccc(OCC4CCCC4)cc3)C(=O)N[C@@H](Cc3cccnc3)C(=O)N2C1 [Example 49] (cyclo([3Pal][Hyp]([CO-Ethylenediamine])[hPhe][dW][Ala(piperidin-4-yl)]Y(X1)))
Result: 501

* * *

Field: EC50. Provide a value for each of the compounds that follow.
assay target: UniProt:P35346
Sequence (P35346 whole entry): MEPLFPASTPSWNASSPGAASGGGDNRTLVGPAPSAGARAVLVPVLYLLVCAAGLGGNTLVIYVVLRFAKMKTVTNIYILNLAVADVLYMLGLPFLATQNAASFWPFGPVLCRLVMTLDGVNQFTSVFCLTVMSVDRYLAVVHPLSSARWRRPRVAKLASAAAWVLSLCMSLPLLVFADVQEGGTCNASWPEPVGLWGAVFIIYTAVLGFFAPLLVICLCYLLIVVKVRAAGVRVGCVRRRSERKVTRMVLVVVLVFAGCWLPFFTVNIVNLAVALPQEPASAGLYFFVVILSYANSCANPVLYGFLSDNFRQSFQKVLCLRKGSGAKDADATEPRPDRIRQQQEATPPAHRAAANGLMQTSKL
test method notes: Hit Hunter cAMP XS+ assay, SST5 activation via Gi (reduction of forskolin-stimulated cAMP)
Format: cell-based
protocol conditions: reduction of forskolin-stimulated cAMP; 4-parameter logistic fit; read-out: SST5 pEC50 (converted)
*1 amine or outer side, *2 acyl side, *3 side chain or, on linkers, in order; H or OH if unused. Where a SMILES comes first, the peptide text is derived from it. Side-chain parts run from the residue outwards. [ ]: non-standard residue; d: D form. The star is where a group is joined. Ala(piperidin-4-yl) = O=C([C@H](CC1CCN([*:3])CC1)N[*:1])[*:2]; dTrp(4-OMe) = COc1cccc2[nH]cc(C[C@@H](N)C(=O)O)c12; Ala(piperazin-1-yl) = N[C@@H](CN1CCNCC1)C(=O)O; Phe(3-Cl) = N[C@@H](Cc1cccc(Cl)c1)C(=O)O; Morpholine(3S-CO) = O=C(O)[C@@H]1COCCN1; Ethylenediamine = C(CN[*:2])N[*:1]; d(hPhe) = N[C@H](CCc1ccccc1)C(=O)O; Hyp = O=C(O)[C@@H]1C[C@@H](O)CN1; hPhe = N[C@@H](CCc1ccccc1)C(=O)O; 3Pal = N[C@@H](Cc1cccnc1)C(=O)O; Tic = O=C(O)[C@@H]1Cc2ccccc2CN1; Benzyl(4-Cl) = Clc1ccc(C*)cc1; Pip = O=C(O)[C@@H]1CCCCN1; CO = O=C([*:1])[*:2]; Bn = c1ccc(C*)cc1; X1 = C1CCC(C*)C1; X4 = C1CC(C*)C1
# number only, unit nM dropped from output

Ask: Recorded EC50 of NCCNC(=O)O[C@@H]1C[C@H]2C(=O)N[C@@H](CCc3ccccc3)C(=O)N[C@H](Cc3c[nH]c4ccccc34)C(=O)N[C@@H](CC3CCNCC3)C(=O)N[C@@H](Cc3ccc(OCC4CCC4)cc3)C(=O)N[C@@H](Cc3cccnc3)C(=O)N2C1 [Example 50] (cyclo([3Pal][Hyp]([CO-Ethylenediamine])[hPhe][dW][Ala(piperidin-4-yl)]Y(X4))) , please.
Result: 15.8

Ask: Try the compound NCCNC(=O)O[C@@H]1C[C@H]2C(=O)N[C@H](CCc3ccccc3)C(=O)N[C@H](Cc3c[nH]c4ccccc34)C(=O)N[C@@H](CN3CCNCC3)C(=O)N[C@@H](Cc3ccc(OCc4ccccc4)cc3)C(=O)N[C@@H](Cc3cccnc3)C(=O)N2C1 [Example 16] (cyclo([3Pal][Hyp]([CO-Ethylenediamine])[d(hPhe)][dW][Ala(piperazin-1-yl)]Y(Bn)))
Result: 3.98

Ask: Try the compound NCCNC(=O)O[C@@H]1C[C@H]2C(=O)N[C@@H](CCc3ccccc3)C(=O)N[C@H](Cc3c[nH]c4ccccc34)C(=O)N[C@@H](CN3CCNCC3)C(=O)N[C@@H](Cc3ccc(OCc4ccccc4)cc3)C(=O)N[C@@H](Cc3cccnc3)C(=O)N2C1 [Example 14] (cyclo([3Pal][Hyp]([CO-Ethylenediamine])[hPhe][dW][Ala(piperazin-1-yl)]Y(Bn)))
Result: 0.0794

Ask: Try the compound NCCNC(=O)O[C@@H]1C[C@H]2C(=O)N[C@@H](CCc3ccccc3)C(=O)N[C@H](Cc3c[nH]c4ccccc34)C(=O)N[C@@H](CN3CCNCC3)C(=O)N[C@@H](Cc3ccc(OCc4ccc(Cl)cc4)cc3)C(=O)N[C@@H](Cc3cccnc3)C(=O)N2C1 [Example 59] (cyclo([3Pal][Hyp]([CO-Ethylenediamine])[hPhe][dW][Ala(piperazin-1-yl)]Y(Benzyl(4-Cl))))
Result: 0.631

Ask: Try the compound NCCNC(=O)O[C@@H]1C[C@H]2C(=O)N[C@@H](CCc3ccccc3)C(=O)N[C@H](Cc3c[nH]c4ccccc34)C(=O)N[C@@H](CN3CCNCC3)C(=O)N[C@@H](Cc3ccc(OCc4ccccc4)cc3)C(=O)N3Cc4ccccc4C[C@H]3C(=O)N2C1 [Example 26] (cyclo([Hyp]([CO-Ethylenediamine])[hPhe][dW][Ala(piperazin-1-yl)]Y(Bn)[Tic]))
Result: 0.126

Ask: Try the compound COc1ccc(C[C@@H]2NC(=O)[C@H](Cc3ccc(OCc4ccccc4)cc3)NC(=O)[C@H](CC3CCNCC3)NC(=O)[C@@H](Cc3c[nH]c4ccccc34)NC(=O)[C@@H](CCc3ccccc3)NC(=O)[C@@H]3C[C@@H](OC(=O)NCCN)CN3C2=O)cc1 [Example 55] (cyclo([Hyp]([CO-Ethylenediamine])[d(hPhe)][dW][Ala(piperidin-4-yl)]Y(Bn)Y(Me)))
Result: 10

Ask: Try the compound NCCNC(=O)O[C@@H]1C[C@H]2C(=O)N[C@@H](CCc3ccccc3)C(=O)N[C@H](Cc3c[nH]c4ccccc34)C(=O)N[C@@H](CC3CCNCC3)C(=O)N[C@@H](Cc3ccc(OCc4ccccc4)cc3)C(=O)N[C@@H](Cc3ccccc3)C(=O)N2C1 [Example 28] (cyclo(F[Hyp]([CO-Ethylenediamine])[hPhe][dW][Ala(piperidin-4-yl)]Y(Bn)))
Result: 0.0794

Ask: Try the compound NCCNC(=O)O[C@@H]1C[C@H]2C(=O)N[C@@H](CCc3ccccc3)C(=O)N[C@H](Cc3c[nH]c4ccccc34)C(=O)N[C@@H](CN3CCNCC3)C(=O)N[C@@H](Cc3ccc(OCc4ccccc4)cc3)C(=O)N3CCCC[C@H]3C(=O)N2C1 [Example 69] (cyclo([Hyp]([CO-Ethylenediamine])[hPhe][dW][Ala(piperazin-1-yl)]Y(Bn)[Pip]))
Result: 79.4

Ask: Try the compound COc1cccc2[nH]cc(C[C@H]3NC(=O)[C@H](CCc4ccccc4)NC(=O)[C@@H]4COCCN4C(=O)[C@@H]4Cc5ccccc5CN4C(=O)[C@H](Cc4ccc(OCc5ccccc5)cc4)NC(=O)[C@H](CC4CCNCC4)NC3=O)c12 [Example 46] (cyclo([Tic][Morpholine(3S-CO)][hPhe][dTrp(4-OMe)][Ala(piperidin-4-yl)]Y(Bn)))
Result: 0.0794

Ask: Try the compound NCCNC(=O)O[C@@H]1C[C@H]2C(=O)N[C@@H](CCc3ccccc3)C(=O)N[C@H](Cc3c[nH]c4ccccc34)C(=O)N[C@@H](CC3CCNCC3)C(=O)N[C@@H](Cc3ccc(OCC4CCCC4)cc3)C(=O)N[C@@H](Cc3cccnc3)C(=O)N2C1 [Example 49] (cyclo([3Pal][Hyp]([CO-Ethylenediamine])[hPhe][dW][Ala(piperidin-4-yl)]Y(X1)))
Result: 3.16

Ask: Try the compound NCCNC(=O)O[C@@H]1C[C@H]2C(=O)N[C@@H](CCc3ccccc3)C(=O)N[C@H](Cc3c[nH]c4ccccc34)C(=O)N[C@@H](CN3CCNCC3)C(=O)N[C@@H](Cc3ccc(OCc4ccccc4)cc3)C(=O)N[C@@H](Cc3cccc(Cl)c3)C(=O)N2C1 [Example 48] (cyclo([Hyp]([CO-Ethylenediamine])[hPhe][dW][Ala(piperazin-1-yl)]Y(Bn)[Phe(3-Cl)]))
Result: 0.02
